This collection of values is drawn from the supplement of paper PMC9170038.

tested on: MS2 coat protein; experiment: apparent KD of MS2 coat protein; designed switch direction (-1 OFF switch, 1 ON switch): -1; higher = weaker reporter binding; conditions: input ligand: none

{"Seq": "CAUGAUUGACGAGGAUAUUGUUCUACAUCACGACGAGAAGGCGUCUGUCACAUGAGGAUCACCCAUGUGAGUCUGGUGAAUGAG [Ex NG1 #82] (Eterna round: R96, puzzle: Exclusion NG 1)", "Result units": "nM", "apparent KD of MS2 coat protein": 21.8}
{"Seq": "UUUGCAAGCUUAUGAUCCCACAUGAGGAUCACCCAUGUUGCUGCCGGUGACGGUAGCAUAACAUAUGCUCGUCUUAU [JL TOV1 3.63] (Eterna round: R97, puzzle: Sensor, turn-off variant 1)", "Result units": "nM", "apparent KD of MS2 coat protein": 1170}
{"Seq": "GGCGUGUCGCGAGGAUAUUCAAACGGACAUGAGGAUCACCCAUGUGAAAGGAAUGUCGAGGUUAUGGAGAAGGCGUUCACGCCG [Qubizace] (Eterna round: R96, puzzle: Exclusion NG 2)", "Result units": "nM", "apparent KD of MS2 coat protein": 153}

---

system: K4 kissing-loop RNA reporter; test: apparent KD of K4 kissing-loop reporter; higher = weaker reporter binding; settings: Eterna round: R107; input ligand: tryptophan 2.4 mM
Here the recorded apparent KD of K4 kissing-loop reporter is given for each entry.
Endpoint label: apparent KD of K4 kissing-loop reporter (nM)

{"Seq": "AGACUACCACACUGUCAAUAGACAGUGAACUAGGAUAUGCUGAUAAGCAGAAGGAGUGAUGUUCCUCGGUAGUCAAUAAAAUAAU [FmnAX 13 C67]", "Result units": "nM", "Quantitative result": 235}
{"Seq": "GCGCGGCCCAGUGAUGUUGGGCCUCGGAGACGAGGACCGGUACGGCCGCCACUCGUCCGCGCAGCUGAGGCAAAAGCCUCGGCAA [Omei KL Tryp A SS B v6]", "Result units": "nM", "Quantitative result": 107}
{"Seq": "AGGCACGAGCAAGGAUAUCGAGUAGAGUGAUGUUCUGCCUGGGUUGGCUCGGAAGAGCCUUCUCAGCGAGAAGGUGCUCGUGCCU [#2 Same State - FMN A Attempt #19 (HarryS)]", "Result units": "nM", "Quantitative result": 888}
{"Seq": "CCUGCAGCUGUAACCGAGUGAUGCUACGGACGAGGACCGGUACGGCCGCCACUCGCCAGUGAUGUUGGUGUGGGAGGACGUAACU [KL-XTryp-A22]", "Result units": "nM", "Quantitative result": 199}
{"Seq": "GACGGGCAGUGAUGUUGCCGGUCUCUUGGACGAGGACCGGUACGGCCGCCACUCGAUCUGAUGCAAGAAUCGCAUCUUUUAAUAA [Biququan]", "Result units": "nM", "Quantitative result": 273}
{"Seq": "AACGCUGCCUGAGGAUAUAGAAACGAGUGAUGUUCGUGGAACGAGACCAGUGAUGUUGGCCUAUUUCUAGAAGGCAGGCAACCGC [Exclusion FMN B GF 1]", "Result units": "nM", "Quantitative result": 125}

---

tested on: K4 kissing-loop RNA reporter; assay: apparent KD of K4 kissing-loop reporter; higher = weaker reporter binding; settings: Eterna round: R107; input ligand: FMN 200 uM
Class y: apparent KD of K4 kissing-loop reporter at least 200 nM. Class n: apparent KD of K4 kissing-loop reporter below 200 nM.

{"Seq": "CCUAUCUCAUACGAUACCAGUCAAUGAAAUUUUAUCAAUGCCAUCACCGAGUGAUGUUCGGACCCUUGGCAGCGUAUGGGAUAGG [Ex Theophylline B K4 3]", "Class assignment": "y"}
{"Seq": "AACGCUCAAUAGAGAGUGAUGUUCUCUAUACGAGGACCGGUACGGCCGCCACUCGAAUGUAUAGCGAAACGCUAUACACAGUGGU [Tryp A SS t2]", "Class assignment": "n"}
{"Seq": "UGCAUCAGUGCCUUUGAUCUAUUCCUGGAUACCAGAUCCUACUUGAUCCCUUGGCAGCCAUACGGGAGUGAUGUUCCAUGUAUCC [theeternabot_exclusion_KL_Theo_A_43]", "Class assignment": "y"}
{"Seq": "CAUACGCAUGGAGGAUAUGAGAUUUCUCAUAUUAUUUAAUAUUCUCAGUGAUGUUGAGAAAUAAACUCAGAAGGCCAUGUGUAUG [Ex FMN B 3]", "Class assignment": "y"}
{"Seq": "CCUAUCUCGUAGGAUACCAGACUAUGAUCUAUGAUCAAUGCCAUCACCGAGUGAUGUUCGGUCCCUUGGCAGCCUAUGAGAUGGG [#13 K4 Theophylline B Exclusion]", "Class assignment": "n"}
{"Seq": "UAAGAAUAAGUAGCAGUGAUGUUGCUACUGCGAGGACCGGUACGGCCGCCACUCGAGUCCUCGAAGCGUCACUGAACGAGGAAUA [whbob_SS_Tryp_A_m13]", "Class assignment": "y"}
{"Seq": "CCUUUCAGUUACGAUACCAGUCUAAUAUAUUUGAUCAAUACCCUCGCCGAGUGAUGUUCGGACCCUUGGCAGCGUCUGGGACAGG [gbbymullin]", "Class assignment": "y"}
{"Seq": "AAAUAACAGGCAGGAUAUGCUUAGUAAUAAGGCCAUAUAUACGUAUAGAGUGAUGUUUUGUACAAAGCAGAAGGGCUAAAUCCAU [FMN B Excl V1]", "Class assignment": "n"}
{"Seq": "UUACUACCCAGUGAUGUUGGGUAGCGGCCACGAGGACCGGUACGGCCGCCACUCGAGGUUCGGGAGUGAUGUUCCUACUAUUUGG [Same state Tryptophan A GF 6]", "Class assignment": "y"}
{"Seq": "UAAUUUAUUUCUUUUAUAUAAUAAUCAGAUACCAGUGAUUAAUGUCACCCUUGGCAGCUGUAUAGAGUGAUGUUCUAAUGCUUAA [JR_SSTheophyA_Sub022]", "Class assignment": "n"}
{"Seq": "UAAUGCAUGACGGCCGCCACUAGUACUGGAGUGAUGUUGUGGUACGGCGGCAGUAUAGGGUGGACUAGGACCGGGUCAUGCAUAU [KL-XTryp-B11 #analogue]", "Class assignment": "y"}

---

Here the recorded apparent KD of K4 kissing-loop reporter is given for each entry.
system: K4 kissing-loop RNA reporter; assay: apparent KD of K4 kissing-loop reporter; higher = weaker reporter binding; conditions: Eterna round: R107; input ligand: FMN 200 uM

{"Seq": "AGUGAUGUUUUUUUUAAGAGUGAUGUUUUUCGAGGACCGGUACGGCCGCCACUCGAGUGAUGAGUGCGUUGUUGUGAUGUUUAGU [#11 K4 Tryptophan A Exclusion]", "Result units": "nM", "apparent KD of K4 kissing-loop reporter": 438}
{"Seq": "AUUUAGACGAGUGAUGUUCGUGUUAUUACAGAGGAUAUGCGUAAUUGCAGAAGGCUGUAUUUAUAUAUGUUAUGUAAUUUUAAAA [JR_ExcFMNA_Sub007]", "Result units": "nM", "apparent KD of K4 kissing-loop reporter": 89.5}
{"Seq": "AGCAGGAGUGAUGUUCCUGUGGCAUAAGUUCGAGGACCGGUACGGCCGCCACUCGUAACAUUAAUCCGUCCUUGAUCAGAUAAGA [theeternabot_sameState_KL_Trp_A_12]", "Result units": "nM", "apparent KD of K4 kissing-loop reporter": 195}
{"Seq": "CCGUGGAGUGAUGUUCCACGUACUACGGAUACCAGCUUUGCCAAAGGCCCUUGGCAGCCGCACGGCUCAGUGAUGUUGGGUCGCG [Same State Theophylline A G10]", "Result units": "nM", "apparent KD of K4 kissing-loop reporter": 167}
{"Seq": "UUCUAAAUGUCUGAUACCAGAGAAAAUAUAUGUAGUGAUGUUAUAUACAAAUUUAAUAAGCUCCCUUGGCAGCAGUAUGAAUUUU [AstrosExc-TheB#13]", "Result units": "nM", "apparent KD of K4 kissing-loop reporter": 705}
{"Seq": "GGGAGAAGUGGUGUUGAUUAAGAAGCGGAAGGAGCGCCGAAGAAGGCAGGUAGGUCGCCGAAAUAUAGUGAUGUUAUAUAAAGGG [ExArg.B]", "Result units": "nM", "apparent KD of K4 kissing-loop reporter": 155}

---

tested on: K4 kissing-loop RNA reporter; experiment: apparent KD of K4 kissing-loop reporter; higher = weaker reporter binding; settings: Eterna round: R107; input ligand: none;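 note: bound reporter read as fluorescence of individual clusters on recovered sequencing chips by microscopy, with normalized cluster intensities fitted with a binding model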
Here the recorded apparent KD of K4 kissing-loop reporter is given for each entry.
Endpoint label: apparent KD of K4 kissing-loop reporter (nM)

{"Seq": "GUAUCGCUAGGAGGAUAUUUCAAAUAAUAAAUAAAUGGAUAUACGGAGUGAUGUUCCGAUUUACGGAAAGAAGGCCUAGUGAUAC [FMN B 1]", "Result units": "nM", "Quantitative result": 194}
{"Seq": "AAUAGGGAUAGUGAUGUUAUCCCUUAUGAUACCAGUGCCAUCGGACACCCUUGGCAGCAUACGGGCAGUGAUGUUGUCCUUGGUG [Exclusion Theophylline A GF 16]", "Result units": "nM", "Quantitative result": 101}
{"Seq": "GGUAGCGCCAGAGAUACCAGUCAUAUCGCUCUGGAGUGAUGUUCCGGAACGUGCGGAGAAGACCCUUGGCAGCUCAUGACGGUAU [Exclusion Theophylline B GF 3]", "Result units": "nM", "Quantitative result": 189}
{"Seq": "UGUGUUGUGUAGUGUUAUGUUUUGAGGGAUACCAGAGUGUUUUUAUUCCCUUGGCAGCUUGAGUGAUGUUUGAUGUUGUUGUUGU [jlljmullin]", "Result units": "nM", "Quantitative result": 218}
{"Seq": "GGGUGGCAGGCGGCCGCCACUCUGAGCACCCACUGAGUGAUGUUCGUGGCGUAAGACUGUUCGUAGAGGACCGGGUUUGUUGUUC [Same State Tryptophan B GF 23]", "Result units": "nM", "Quantitative result": 214}
{"Seq": "GCCGUAGAUGGAAGGAGCGUGAUAAGUGAAUUAUCCAGUGAUGUUGGAUCUUAGAUAGGAUCACAGGUAGGUCGCCAUCUACGGC", "Result units": "nM", "Quantitative result": 217}
